All figures here come from patent US9980943B2.

I'd appreciate it if you could supply activation at 38.3 µM values for the items below.
Test system: α7 integrin (LacZ reporter in α7LacZ+/− myoblasts)
Test: qHTS of the LOPAC library and MLSMR (online screen, α7LacZ+/− myoblasts)
Run conditions: Mus musculus, Myoblast, 48 h, read-out: Activity at 38.30uM [%] **
Respond with the bare value in %.

Ask: # get_value(readout= activation at 38.3 µM, system= α7 integrin (LacZ reporter in α7LacZ+/− myoblasts)) for CN(C)/C(S)=N/c1cccc(C(F)(F)F)c1 [Compound 172]
Result: 71.2

Ask: # get_value(readout= activation at 38.3 µM, system= α7 integrin (LacZ reporter in α7LacZ+/− myoblasts)) for O=C(COc1cc2oc(=O)c3c(c2cc1Cl)CCCC3)NC[C@H]1CC[C@H](C(=O)O)CC1 [Compound 95]
Result: 67.9

Ask: # get_value(readout= activation at 38.3 µM, system= α7 integrin (LacZ reporter in α7LacZ+/− myoblasts)) for C/C(=N\NC(=O)c1cc(C)oc1C)c1ccc2ccccc2c1 [Compound 149]
Result: 68

---

Test system: β-galactosidase in CMV-LacZ C2C12 myotubes
Test: CMV-LacZ secondary screen in C2C12 myotubes (β-Gal stabilizing assay)
Format: cell-based, mouse
Run conditions: 10 uM; SU9516 analogs, C2C12 CMV-LacZ, N=2
I'd appreciate it if you could supply CMV-LACZ in Myotubes, value relative to DMSO values for the items below.
Answer with a number only.

Ask: Fill blank: measured CMV-LACZ in Myotubes, value relative to DMSO of the molecule O=Nc1c(-c2c(O)[nH]c3ccccc23)[nH]c2ccccc12 [NCGC00015545-02] is ____.
Result: 0.5058

Ask: Fill blank: measured CMV-LACZ in Myotubes, value relative to DMSO of the molecule O=C(O)COc1ccccc1/C=C1\C(=O)Nc2ccc(Br)cc21 is ____.
Result: 0.9282

Ask: Fill blank: measured CMV-LACZ in Myotubes, value relative to DMSO of the molecule COc1ccc(C(=O)/C=C2/C(=O)Nc3ccccc32)cc1OC is ____.
Result: 1.2757

Ask: Fill blank: measured CMV-LACZ in Myotubes, value relative to DMSO of the molecule N#C/C(=C1/C(=O)Nc2ccc(Br)cc21)c1ccccn1 is ____.
Result: 0.9162

Ask: Fill blank: measured CMV-LACZ in Myotubes, value relative to DMSO of the molecule CCN(CC)CCNC(=O)c1c(C)[nH]c(/C=C2\C(=O)Nc3ccc(F)cc32)c1C [NCGC00164631-03] is ____.
Result: 0.3964

Ask: Fill blank: measured CMV-LACZ in Myotubes, value relative to DMSO of the molecule CCO/C(C)=C1\C(=O)Nc2ccccc21 is ____.
Result: 1.1355

Ask: Fill blank: measured CMV-LACZ in Myotubes, value relative to DMSO of the molecule Cc1[nH]c(C=C2C(=O)Nc3ccccc32)c(C)c1CCC(=O)O is ____.
Result: 1.0724

Ask: Fill blank: measured CMV-LACZ in Myotubes, value relative to DMSO of the molecule O=C1Nc2ccccc2/C1=C/c1ccccc1Cl is ____.
Result: 1.0423

Ask: Fill blank: measured CMV-LACZ in Myotubes, value relative to DMSO of the molecule CCOc1cc2c3c(c1)C(C)=CC(C)(C)N3C(=O)C2=O is ____.
Result: 1.0698
